Assay: in vivo
Settings: male, CD-1, mouse, po, 10 mg/kg
measuredAttribute: half-life (h)

1. CC12CC3CC(C(=O)N[C@H]4CC[C@@H](N)CC4)(C1)CC(c1ccccc1)(C3)C2.Cl (mixture of isomers) [Example A2]; 7.1

###

Target: hERG ion channel (Homo sapiens, UniProt Q12809)
Sequence (Q12809 whole entry): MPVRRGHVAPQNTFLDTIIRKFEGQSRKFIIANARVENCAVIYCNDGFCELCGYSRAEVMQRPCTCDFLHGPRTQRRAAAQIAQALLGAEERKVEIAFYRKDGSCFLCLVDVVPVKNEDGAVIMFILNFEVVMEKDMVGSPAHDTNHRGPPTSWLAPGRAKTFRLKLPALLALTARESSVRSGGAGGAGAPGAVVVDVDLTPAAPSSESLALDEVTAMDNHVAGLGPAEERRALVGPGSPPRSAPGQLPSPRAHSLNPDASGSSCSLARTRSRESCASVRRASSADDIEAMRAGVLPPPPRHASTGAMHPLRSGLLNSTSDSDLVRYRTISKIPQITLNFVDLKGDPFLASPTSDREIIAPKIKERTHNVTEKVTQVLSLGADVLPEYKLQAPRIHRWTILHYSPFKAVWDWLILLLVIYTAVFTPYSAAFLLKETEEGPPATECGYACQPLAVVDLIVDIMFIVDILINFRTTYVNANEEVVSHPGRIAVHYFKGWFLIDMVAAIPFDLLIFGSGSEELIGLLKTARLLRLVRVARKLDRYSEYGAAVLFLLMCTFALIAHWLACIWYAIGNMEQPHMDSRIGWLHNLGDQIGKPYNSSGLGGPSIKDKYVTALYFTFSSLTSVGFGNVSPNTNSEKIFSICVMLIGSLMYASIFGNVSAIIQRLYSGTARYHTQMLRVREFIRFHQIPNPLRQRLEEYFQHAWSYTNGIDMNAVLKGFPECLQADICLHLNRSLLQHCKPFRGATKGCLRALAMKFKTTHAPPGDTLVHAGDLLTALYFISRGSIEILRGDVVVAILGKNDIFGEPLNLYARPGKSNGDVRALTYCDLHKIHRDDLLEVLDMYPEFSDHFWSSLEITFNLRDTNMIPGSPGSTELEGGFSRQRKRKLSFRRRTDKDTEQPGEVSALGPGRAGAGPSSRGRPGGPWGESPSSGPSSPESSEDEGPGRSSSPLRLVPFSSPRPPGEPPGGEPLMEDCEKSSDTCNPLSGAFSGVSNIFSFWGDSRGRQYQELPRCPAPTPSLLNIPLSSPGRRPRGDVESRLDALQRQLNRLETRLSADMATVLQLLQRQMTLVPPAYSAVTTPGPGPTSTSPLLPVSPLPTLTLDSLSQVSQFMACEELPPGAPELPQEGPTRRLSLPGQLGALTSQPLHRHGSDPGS
Assay: biochemical
measuredAttribute: IC50

1. CC12CC3CC(C(=O)N[C@H]4CC[C@@H](N)CC4)(C1)CC(c1ccccc1)(C3)C2.Cl (mixture of isomers) [Example A2]; > 10 µM

###

Experiment: in vitro
Conditions: African green monkey, Cytotox CC50
measuredAttribute: CC50 (µM)

1) CC12CC3CC(C(=O)NC4CC5CNC4C5)(C1)CC(c1ccccc1)(C3)C2 (racemic) [Example A30]; 30
2) NC1CCN(CC23CC4CC(C2)CC(c2ccccc2)(C4)C3)CC1 [Example A68]; 7.47
3) C[C@@]12CC3CC(C(=O)N[C@H]4CC[C@H](CN)CC4)(C1)C[C@](c1ccccc1)(C3)C2 [Example C3]; 5.2
4) CCC12CC3CC(C(=O)NC4CCC5(CC4)CNC5)(C1)CC(c1ccccc1)(C3)C2 (racemic) [Example A27]; 7.9
